Tested on: IGROV1 ovarian
Method Summary: NCI-60 one-dose screen, 48 h (100 = growth as untreated, 0 = no growth, -100 = all killed)
Run Parameters: 10 µM
This is part of a sample that, as a whole, favours compounds with a hit. Of some 83,000 tested, about 20% had one in any assay.
Provide the reported growth of each item.
Numbers only, in %.

Below, 5 compounds whose answers are already recorded.
CN(C)CCOc1ccccc1NC1=C(Cl)C(=O)C(Nc2ccccc2OCCN(C)C)=C(Cl)C1=O    10.5
Cc1cc(O)ccc1C1=NN(c2ccc(S(C)(=O)=O)cc2)C(=O)CC1    43.5
COc1cc2c(Nc3ccc(S(N)(=O)=O)cc3)ncnc2c(OC)c1OC    96.1
O=C(N/N=C/c1ccc([N+](=O)[O-])cc1)c1ccccc1Nc1cccc(C(F)(F)F)c1    67.3
C=CCSC(CC)(CC)C(=O)NC    113

Dear reader, for each entry below, please note its growth.
1. Cc1[nH]c2ccccc2c1/C=N/Nc1ncnc2sc3c(c12)CCN(CC(=O)OC(C)(C)C)C3
2. Cn1cnc([N+](=O)[O-])c1/C=C1\Oc2ccc(Br)cc2C1=O
3. O=C(CNc1nnc(-c2cccnc2SCc2ccccc2)s1)Nc1nc(Cl)cc(Cl)n1
4. COc1cc2c(Nc3ccc(-c4ccc(N)cc4)cc3)ncnc2c(OC)c1OC
5. O=C(CCCCCCC(=O)Nc1ccccc1)NO
6. COc1ccc(-c2cc(-c3ccc(OC)c(OC)c3)nc(SCCCC(=O)NO)n2)cc1
7. O=C(CSc1nnc(-c2cccnc2SCc2ccccc2)o1)Nc1nc(Cl)cc(Cl)n1
8. COc1ccc2nc3cc(Cl)ccc3c(NCCCNCCO)c2c1

Marked response:
[79.8, 87.1, 96.6, 22.5, 23.7, -25.1, 105, 2.85]

These data points were gathered from PubChem BioAssay (NCI).
